assay: Components of the Cytosolic LPS Sensing Pathway: Gene Identification via Genome-wide siRNA Screen; conditions: RAW264.7 macrophages, IL-1a HTRF, actives lie on both sides, screened at 100 nM (by protocol), cells primed 5 h with Pam3CSK4 first
Out of some 53,000 sequences screened, about 3,700 (7%) were called active.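 The calls were made as follows: active = gene knockdowns whose robust z-score for IL-1 alpha signal is at least 2 or at most -2, so actives lie on both sides; inactive = the rest.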 Many of the other results were omitted from the sample, so actives are more common in it than they were.
In this exercise, the only acceptable responses are active, inactive

Look over these answered cases.
GGUUUCAAGAAAGAUAUGATT against Cntnap5b = inactive
GAUGCACACGUGGGAAGACTT against Cdpf1 = active
GCCUCAGUUAUUUAAUGAATT against Mpp3 = inactive
GCUGGCUGUUGGAUAAGUGTT against Olfr1112 = active
CGCGGUGUUCGACAUCUUGTT against Noc4l = active
GGUGAGUAUAUUCAAGUUATT against Ndor1 = active
GGACAAUUCAGAGUGAUAGTT against Mog = active

Shifting focus to the sequence that follows.
Please share the test call associated with GGUACCAUAUGAGAGCUAATT against Tsr2 . active

###

Test: Components of the Cytosolic LPS Sensing Pathway: Gene Identification via Genome-wide siRNA Screen
Conditions: RAW264.7 macrophages, IL-1a HTRF, actives lie on both sides, screened at 100 nM (by protocol), cells primed 5 h with Pam3CSK4 first
Description: Non-canonical inflammasome activation by cytosolic LPS is a critical component of the host response to Gram-negative bacterial infection, however we lack a comprehensive understanding of the cellular processes that control this pathway. […] Lipofectamine RNAiMAX Transfection Reagent ([…]; Invitrogen) was added in […] serum-free, antibiotic-free media to plate wells using a Thermo Scientific Matrix WellMate and Microplate Stacker. […] The plates were read on an EnVision plate reader (PerkinElmer). […]
The whole screen tested about 53,000 sequences, of which about 3,700 (7%) were called active.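 How the source made its calls: active means gene knockdowns whose robust z-score for IL-1 alpha signal is at least 2 or at most -2, so actives lie on both sides; inactive means the rest.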 Shown is part of a subset that was picked to be rich in actives.
In this exercise, the only acceptable responses are active, inactive

Look over these answered cases.
GCCUUAAAAGACCUGACGUTT against Abca8b = active
GCACCUUAAUUCUUCGCCATT against Amigo2 = inactive
GGUGAUGGUCCAGAUUAACTT against Plpbp = inactive
GGAAGACAUGAAAUUGUUCTT against Psma3 = active
GGCUCUUUCAACGUAAAUUTT against Fan1 = active

Please share the test call associated with GGCAGAUGGUAUCAGCUGUTT against Cd248 . inactive

Please share the test call associated with GGCGACAAGCAACUUAUAATT against Mgat4c . active

Please share the test call associated with GCGGGAACCAUUUUUGUGATT against Cdh11 . inactive

Please share the test call associated with CGAGAGCAUUAAUUACUUCTT against Sulf1 . inactive

###

z-score reference
assay: Components of the Cytosolic LPS Sensing Pathway: Gene Identification via Genome-wide siRNA Screen; details: RAW264.7 macrophages, IL-1a HTRF, actives lie on both sides, screened at 100 nM (by protocol), cells primed 5 h with Pam3CSK4 first
The whole screen tested about 53,000 sequences, of which about 3,700 (7%) were called active. This excerpt belongs to a sample that is enriched for actives.
Answer using only a numeral; do not append any unit.

CCUCGAAUGCAGACGUACGTT against Sdhb = 1.67
GGCUGCUCGAAUCAGUCAUTT against Slc27a3 = 0.237
GGACAAAAGACUUGAAUUUTT against Alox15 = 1.86
GGCCCAUAUCUGCUCUCAUTT against Ssc5d = -2.04
GGAUGUCAACAUUCGAGAUTT against Tmem231 = 0.993

Then this sequence:
Please report z-score for the following sequence: GCUUUCUGAAGUAGCAAAGTT against Nit2 0.42

###

z-score reference
assay: Components of the Cytosolic LPS Sensing Pathway: Gene Identification via Genome-wide siRNA Screen; conditions: RAW264.7 macrophages, IL-1a HTRF, actives lie on both sides, screened at 100 nM (by protocol), cells primed 5 h with Pam3CSK4 first;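 also: robust z of the log signal after scaling to non-targeting control siRNA wells of the plate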
Out of some 53,000 sequences screened, about 3,700 (7%) were called active. The entries come from a sample that favours actives as a whole.
Answer using only a numeral; do not append any unit.

Please report z-score for the following sequence: GGACGAUAGGACCCAAAGGTT against Sh3tc1 0.668

Please report z-score for the following sequence: GGGCUAGAUGAAUUUUUGATT against Aplnr -0.181

Please report z-score for the following sequence: UGGCAAGAUUGAAACCAUATT against Hnrnpa3 -1.61

Please report z-score for the following sequence: CUGGAUGCAUUAACUUCUUTT against Olfr1219 0.326

###

Assay: Components of the Cytosolic LPS Sensing Pathway: Gene Identification via Genome-wide siRNA Screen;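 also: robust z of the log signal after scaling to non-targeting control siRNA wells of the plate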
Details: RAW264.7 macrophages, IL-1a HTRF, actives lie on both sides, screened at 100 nM (by protocol), cells primed 5 h with Pam3CSK4 first
Procedure: Non-canonical inflammasome activation by cytosolic LPS is a critical component of the host response to Gram-negative bacterial infection, however we lack a comprehensive understanding of the cellular processes that control this pathway. […] Lipofectamine RNAiMAX Transfection Reagent ([…]; Invitrogen) was added in […] serum-free, antibiotic-free media to plate wells using a Thermo Scientific Matrix WellMate and Microplate Stacker. […] The plates were read on an EnVision plate reader (PerkinElmer). […]
In all, about 53,000 sequences went through this assay and about 3,700 (7%) were called active. Shown is part of a subset that was picked to be rich in actives.
# if measured z-score < 0.05: met  # else: not met

Look over these answered cases.
CGACAAUACUCUCUUCAAGTT against Fst = not met
GGACUCAGAUAUCUUUCAGTT against Adck1 = met
GGAAACAAAAGGAUUUCUGTT against Fbxl13 = not met
GGACGUGAAUGUGUUUGACTT against Cyp26b1 = not met
GGAACAGCCUAUGUGGUCUTT against Sf3b6 = met
GCCCUCAGGUGGUUCUUAATT against Heatr3 = not met
GCUUAUCAUCUCCAGACAGTT against Svop = met
GGGAUUACCAAAAAGGCAUTT against Senp7 = not met

Here's an entry: GAGCAUCUGUGUAGAAGUGTT against Thrsp . Is its z-score below 0.05? not met

Here's an entry: GCUGCUCAGUUUCUUCCAATT against H4c9 . Is its z-score below 0.05? not met

Here's an entry: GGUCACACUUUCUUUGGAATT against Tcf25 . Is its z-score below 0.05? not met

Here's an entry: GGAAACCUGCAUCCUAUGATT against Olfr195 . Is its z-score below 0.05? met

###

assay: Components of the Cytosolic LPS Sensing Pathway: Gene Identification via Genome-wide siRNA Screen; conditions: RAW264.7 macrophages, IL-1a HTRF, actives lie on both sides, screened at 100 nM (by protocol), cells primed 5 h with Pam3CSK4 first;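 also: robust z of the log signal after scaling to non-targeting control siRNA wells of the plate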
In all, about 53,000 sequences went through this assay and about 3,700 (7%) were called active. This is one part of a sample in which actives are shown more often than they occur.
QUANTITY: z-score
Answer using only a numeral; do not append any unit.

Solved entries:
GUCAUCAUGAACCAAGAGATT against Olfr713 = -2.18
GCGUAUUUGGUGUUAAAAATT against Iars = 0.417
GGACCAUGUUAGAGCAUGCTT against Traf2 = -2.36

Please report z-score for the following sequence: GGGACAGUUGACUUUUUAUTT against Cntn4 0.147

Please report z-score for the following sequence: GGACUGUUUUGUCUUGAAGTT against Gm5124 -1.04

Please report z-score for the following sequence: GCCAUAUAUCUGCUAUCAUTT against Clvs2 2.34

Please report z-score for the following sequence: GGCCAUUCUGGAAACUCCATT against Foxp4 -0.0644

###

test: Components of the Cytosolic LPS Sensing Pathway: Gene Identification via Genome-wide siRNA Screen; conditions: RAW264.7 macrophages, IL-1a HTRF, actives lie on both sides, screened at 100 nM (by protocol), cells primed 5 h with Pam3CSK4 first;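 also: robust z of the log signal after scaling to non-targeting control siRNA wells of the plate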
Screen size: about 53,000 sequences; about 3,700 (7%) were called active. The sample as a whole holds a higher share of actives than the screen did.
z-score reference
Answer using only a numeral; do not append any unit.

Solved entries:
GCUCAGUACCGCACAACCATT against Dus3l = -0.827
GGUGAUGGAAGUUAGUGUGTT against Bet1 = -1.34
GGAACUGCUCAAGAUCAAGTT against Plagl2 = 1.92
GCAGGCUCUGCAUGAAGCATT against Alpl = -0.213
GGCUUUGAGCAUGUUUUCATT against Hspb7 = 7.14

Please report z-score for the following sequence: GGAUGAUCACAAAGGUAUATT against 4632404H12Rik 0.0665

Please report z-score for the following sequence: GCGAUCUAGAAAUUGACAATT against St13 -0.59

Please report z-score for the following sequence: GGGCCAUUUUAGGUCCUUUTT against Rbm7 0.112
